- Test system: SR
- experimental_details: NCI tumour cell line growth inhibition, 48 h
Active and inactive are the calls of the source. Rule as the data show it: active = GI50 up to about 1.1 µM and inactive = higher.
readout_label: GI50

- compound: "N#C/C(=C/N1C(=O)/C(=C/c2ccc([N+](=O)[O-])cc2)SC1=S)c1nc2ccccc2s1"
  readout_label: "GI50"
  observed_value: "25.6 µM (inactive)"
- compound: "O=[N+]([O-])C(=C1NCCN1)/C(Cl)=C(\\Cl)Br"
  readout_label: "GI50"
  observed_value: "21.5 µM (inactive)"
- compound: "CC1OC(OC2C(O[C@H]3CC[C@@]4(C)C(=CC[C@H]5[C@@H]6C[C@@H]7O[C@]8(CC[C@@H](C)CO8)[C@@H](C)[C@@H]7[C@@]6(C)CC[C@@H]54)C3)OC(CO)C(O)C2OC2OC(CO)C(O)C(O)C2O)C(O)C(O)C1O (some centres undefined)"
  readout_label: "GI50"
  observed_value: "> 100 µM (inactive)"
- compound: "COC(=O)/C=C(C)/C=C\\COC1CCCCO1 (centres undefined)"
  readout_label: "GI50"
  observed_value: "> 100 µM (inactive)"

----------
- Tested on: HL-60
- experimental_details: NCI tumour cell line growth inhibition, 48 h
The source made the active and inactive calls. Cut-off read from the data, not from the text of the source: active = GI50 up to about 1.1 µM and inactive = higher.

- compound: "COC(=O)N1CCc2c(nc(N(C)CCO)[nH]c2=O)C1"
  GI50: "> 100 µM (inactive)"
- compound: "CC(=O)CCCCO"
  GI50: "> 100 µM (inactive)"
- compound: "CC(C)C1N2CCCCC2[C@@H]2c3[nH]c4ccccc4c3CCN12 (stereo partly specified)"
  GI50: "> 100 µM (inactive)"
- compound: "C=C=C(C(=O)OC)[S+]([O-])c1ccccc1[N+](=O)[O-] (stereo unspecified)"
  GI50: "75.2 µM (inactive)"
- compound: "CCC(=O)C(CCN1CCC(N2C(=O)C(CCC#N)c3ccccc32)CC1)(c1ccccc1)c1ccccc1 (stereo unspecified)"
  GI50: "4.67 µM (inactive)"
- compound: "O=[N+]([O-])c1ccc2c(c1)S(=O)(=O)N1Cc3ccccc3CCN21"
  GI50: "> 100 µM (inactive)"

----------
- System: SNB-19
- experimental_details: NCI tumour cell line growth inhibition, 48 h
The source made the active and inactive calls. Cut-off read from the data, not from the text of the source: active = GI50 up to about 1.1 µM and inactive = higher.

- compound: "O=c1cn[nH]c(=S)n1/N=C/c1c[nH]c2ccccc12"
  GI50: "> 100 µM (inactive)"
- compound: "CC(O)C(NC(=O)C(CS)NC(=O)C(CO)NC(=O)C(CCCCN)NC(=O)C(Cc1c[nH]c2ccccc12)NC(=O)C(Cc1ccc(O)cc1)NC(=O)C(CS)NC(=O)C(N)Cc1ccccc1)C(N)=O (stereo not drawn)"
  GI50: "26.2 µM (inactive)"
- compound: "CCC12C=CCN3CC[C@]4(C(=C(C(=O)OC)[C@@H]1Nc1ccn(C5OC(COC(C)=O)C(OC(C)=O)C5OC(C)=O)c(=O)n1)Nc1ccccc14)C32 (stereo partly drawn)"
  GI50: "4.73 µM (inactive)"
- compound: "Nc1cccc2c1C(=O)c1cccc(N)c1C2=O"
  GI50: "> 100 µM (inactive)"
- compound: "COc1ccc([N+](=O)[O-])c2c(NCCCN(C)C)c(C)c(C)nc12"
  GI50: "44.8 µM (inactive)"
- compound: "Cn1c(=O)c2c(nc(Nc3ccc(Cl)cc3)n3c(=O)n(-c4ccccc4)c(=O)n23)n(C)c1=O"
  GI50: "> 100 µM (inactive)"
- compound: "CC(C)C1N2CCCCC2[C@@H]2c3[nH]c4ccccc4c3CCN12 (stereo partly drawn)"
  GI50: "> 100 µM (inactive)"
- compound: "O=C(OC1C=C=CS(=O)(=O)CC#C/C=C\\1)c1cnc2ccccc2n1 (stereo not drawn)"
  GI50: "> 100 µM (inactive)"

----------
- System: OVCAR-8
- experimental_details: NCI tumour cell line growth inhibition, 48 h
Activity calls are given as the source filed them. Rule as the data show it: active = GI50 up to about 1.1 µM and inactive = higher.
The following compounds are shown together with reported GI50 values.
readout_label: GI50

- compound: "C=CCn1c(S)nnc1C12CC3CC(CC(C3)C1)C2"
  observed_value: "92.9 µM (inactive)"
- compound: "COc1cc2c(cc1OC)C(Cl)C(c1ccc(Cl)c(Cl)c1)=C2Cl (stereo not given)"
  observed_value: "6.62 µM (inactive)"
- compound: "N=C(N)N/N=C/c1c[nH]c2ccccc12"
  observed_value: "> 100 µM (inactive)"
- compound: "CCCCCCC(=O)C/C(CCC(=O)N(Cc1ccccc1)Cc1ccccc1)=N\\Nc1ccc([N+](=O)[O-])cc1[N+](=O)[O-]"
  observed_value: "54.7 µM (inactive)"
- compound: "CO[C@]12C#CC=CC#C[C@@H](O)[C@]3(CCC1)O[C@@]23c1cccc(O)c1"
  observed_value: "> 100 µM (inactive)"

----------
- System: SW-620
- experimental_details: NCI tumour cell line growth inhibition, 48 h
Activity calls are given as the source filed them. No stated cut-off is given here; in the data, active = GI50 up to about 1.1 µM and inactive = higher.
Classes used: active, inactive

- molecule: "O=c1[nH]nc(Cc2ccccc2)n1/N=C/c1ccc(/C=N/n2c(Cc3ccccc3)n[nH]c2=O)cc1"
  label_class: "inactive"
- molecule: "COc1cc(/C=N\\O)cc(/C=N/O)c1O"
  label_class: "inactive"
- molecule: "COc1ccc(Nc2nc3cc(C(F)(F)F)ccc3n3cccc23)cc1OC"
  label_class: "inactive"
- molecule: "CN(C)c1ccc(/C=C/C(=O)c2cc(C(C)(C)C)c(O)c(C(C)(C)C)c2)cc1"
  label_class: "active"
- molecule: "COc1nc(OC)c2c(=O)oc(-c3ccccc3)cc2n1"
  label_class: "inactive"
- molecule: "Nn1c(CNc2ccc(-c3nnc(Nc4ccc(Cl)cc4)n3N)cc2)nnc1Nc1ccc(Cl)cc1"
  label_class: "inactive"
- molecule: "COCC12CCC(OC)C34C5CC6(O)C(OC)CC(OC(C)=O)(C5C6OC(=O)c5ccccc5)C(C(OC)C13)C4N(C)C2 (stereo not given)"
  label_class: "inactive"
- molecule: "N#C/C(=C/N1C(=O)/C(=C/c2ccc([N+](=O)[O-])cc2)SC1=S)c1nc2ccccc2s1"
  label_class: "inactive"
- molecule: "N#C/C(=C\\Nc1ccccn1)C(=O)C1CC1"
  label_class: "inactive"
- molecule: "CCC1C(C#N)=C(N)OC2=C1C(=O)CC(C)(C)C2 (stereo not given)"
  label_class: "inactive"

----------
# log10 of GI50 measurements, system: HCT-15
readout_label: log10 of GI50 (log10 of the value in µM)

- compound: "CC(C)(Oc1ccc(/C=C/C(=O)c2ccc(Cl)cc2)cc1)C(=O)Nc1c(Cl)cccc1Cl"
  observed_value: 1.18
- compound: "CCC(=O)NI1OC(=O)c2ccccc21"
  observed_value: 1.64
- compound: "Cc1cc(Cl)ccc1OCC(=O)Oc1c(Cl)c(Cl)c(Cl)c(Cl)c1Cl"
  observed_value: 1.43
- compound: "COc1cc2c(cc1OC)C(Cl)C(c1ccc(Cl)c(Cl)c1)=C2Cl (configuration not stated)"
  observed_value: 0.52
- compound: "Cc1ccc([Se][Se]c2ccc(C)cc2)cc1"
  observed_value: 0.97
- compound: "O=[N+]([O-])C(=C1NCCN1)/C(Cl)=C(\\Cl)Br"
  observed_value: 0.70
- compound: "[O-][S+](Nc1ccccc1)c1ccc(Cl)cc1 (configuration not stated)"
  observed_value: 1.88
- compound: "C[C@H](CCc1nc(C#N)c(N)o1)[C@H]1CC[C@H]2[C@@H]3[C@@H](O)CC4C[C@@H](O)CC[C@]4(C)[C@H]3C[C@@H](O)[C@]12C (some centres not stated)"
  observed_value: 1.68
- compound: "NNC(=O)c1cc([N+](=O)[O-])ccc1NC(=O)C12CC3CC(CC(C3)C1)C2"
  observed_value: -0.20
- compound: "CCCCC1c2c([nH]c3ccccc23)C2C(=O)N(c3ccc(OC)cc3)C(=O)C2C1CCC (configuration not stated)"
  observed_value: 0.56
- compound: "CC1CCP(=O)(c2ccccc2)c2ccccc21 (configuration not stated)"
  observed_value: 1.58

----------
- Test system: SF-268
- experimental_details: NCI tumour cell line growth inhibition, 48 h
Activity calls are given as the source filed them. No stated cut-off is given here; in the data, active = GI50 up to about 1.1 µM and inactive = higher.

- molecule: "Cc1ccc(/S(Cc2ccccc2)=N\\S(=O)(=O)c2ccc(C)cc2)cc1 (configuration not stated)"
  target_or_test_system: "SF-268"
  GI50: "> 100 µM (inactive)"
- molecule: "[O-][S+]1Nc2c(Cl)cc(Cl)c3c(Cl)cc(Cl)c(c23)N1"
  target_or_test_system: "SF-268"
  GI50: "34.6 µM (inactive)"
- molecule: "OC(CC1CCCCN1)c1ccc2c(c1)oc1ccccc12 (configuration not stated)"
  target_or_test_system: "SF-268"
  GI50: "> 100 µM (inactive)"
- molecule: "O=[N+]([O-])/C(C(Cl)=C(Cl)Cl)=C1\\Nc2ccc([N+](=O)[O-])cc2N1"
  target_or_test_system: "SF-268"
  GI50: "61.8 µM (inactive)"
- molecule: "O=[N+]([O-])/C(C(Cl)=C(Cl)Cl)=C(\\Nc1cccc2cccnc12)SCc1ccccc1"
  target_or_test_system: "SF-268"
  GI50: "17.3 µM (inactive)"
- molecule: "COc1ccc(OC(C)=O)c2c1CCC=CC2=O"
  target_or_test_system: "SF-268"
  GI50: "> 10 µM (inactive)"
- molecule: "COc1cc2c(cc1OC)-c1cc3cc(OC)c(OC)cc3n1CC2"
  target_or_test_system: "SF-268"
  GI50: "81.5 µM (inactive)"
- molecule: "Cn1c(=O)c2c(nc(Nc3ccc(Cl)cc3)n3c(=O)n(-c4ccccc4)c(=O)n23)n(C)c1=O"
  target_or_test_system: "SF-268"
  GI50: "> 100 µM (inactive)"
- molecule: "Cc1cc2c(SCc3ccccc3Cl)nc(N)nc2nc1C"
  target_or_test_system: "SF-268"
  GI50: "65.5 µM (inactive)"
- molecule: "Nc1nc(Cl)cc(NCC2(CO)CCC(O)C2)n1 (configuration not stated)"
  target_or_test_system: "SF-268"
  GI50: "> 100 µM (inactive)"
- molecule: "Cc1nc(-c2nc(C)c(C(=O)/C=C/c3ccc(N(C)C)cc3)s2)sc1C(=O)/C=C/c1ccc(N(C)C)cc1"
  target_or_test_system: "SF-268"
  GI50: "> 100 µM (inactive)"
- molecule: "O=C(O)/C=C\\C(=O)Nc1ccccn1"
  target_or_test_system: "SF-268"
  GI50: "> 100 µM (inactive)"
- molecule: "COc1cc(-c2cc(=O)c3c(O)c(OC)c(OC)c(OC)c3o2)ccc1O"
  target_or_test_system: "SF-268"
  GI50: "26.5 µM (inactive)"
- molecule: "O=C(CC(O)(C(F)(F)F)C(F)(F)F)C(CCCl)C(O)(C(F)(F)F)C(F)(F)F (configuration not stated)"
  target_or_test_system: "SF-268"
  GI50: "30.7 µM (inactive)"
- molecule: "Cc1cc2c(O)c(c1)COCc1cc(C)cc(c1O)COCc1cc(C)cc(c1O)COC2"
  target_or_test_system: "SF-268"
  GI50: "> 100 µM (inactive)"
- molecule: "c1ccc2sc(SCCSc3nc4ccccc4s3)nc2c1"
  target_or_test_system: "SF-268"
  GI50: "> 100 µM (inactive)"
- molecule: "CCC1c2cc3n(c(=O)c2COC1O)Cc1c-3nc2ccccc2c1Cl (configuration not stated)"
  target_or_test_system: "SF-268"
  GI50: "14.4 µM (inactive)"
- molecule: "CN(C)CCNC(=O)c1cccc2ccc(-c3ccncc3)nc12"
  target_or_test_system: "SF-268"
  GI50: "3.79 µM (inactive)"
- molecule: "CN(C)CCNc1nc(-c2ccc3ccccc3c2)nc2[nH]cnc12"
  target_or_test_system: "SF-268"
  GI50: "8.22 µM (inactive)"
- molecule: "COc1ccc(-c2cc(=O)c3c(O)cc(C)cc3o2)cc1OC"
  target_or_test_system: "SF-268"
  GI50: "> 100 µM (inactive)"
- molecule: "O=c1cn[nH]c(=S)n1/N=C/c1c[nH]c2ccccc12"
  target_or_test_system: "SF-268"
  GI50: "> 100 µM (inactive)"
- molecule: "O=c1[nH]c2cc(-c3ccccc3)nc-2nn1-c1c(Cl)cc(Cl)cc1Cl"
  target_or_test_system: "SF-268"
  GI50: "> 100 µM (inactive)"
